Molecular target: hERG (KCNH2) (Homo sapiens)
Sequence (Q12809 whole entry): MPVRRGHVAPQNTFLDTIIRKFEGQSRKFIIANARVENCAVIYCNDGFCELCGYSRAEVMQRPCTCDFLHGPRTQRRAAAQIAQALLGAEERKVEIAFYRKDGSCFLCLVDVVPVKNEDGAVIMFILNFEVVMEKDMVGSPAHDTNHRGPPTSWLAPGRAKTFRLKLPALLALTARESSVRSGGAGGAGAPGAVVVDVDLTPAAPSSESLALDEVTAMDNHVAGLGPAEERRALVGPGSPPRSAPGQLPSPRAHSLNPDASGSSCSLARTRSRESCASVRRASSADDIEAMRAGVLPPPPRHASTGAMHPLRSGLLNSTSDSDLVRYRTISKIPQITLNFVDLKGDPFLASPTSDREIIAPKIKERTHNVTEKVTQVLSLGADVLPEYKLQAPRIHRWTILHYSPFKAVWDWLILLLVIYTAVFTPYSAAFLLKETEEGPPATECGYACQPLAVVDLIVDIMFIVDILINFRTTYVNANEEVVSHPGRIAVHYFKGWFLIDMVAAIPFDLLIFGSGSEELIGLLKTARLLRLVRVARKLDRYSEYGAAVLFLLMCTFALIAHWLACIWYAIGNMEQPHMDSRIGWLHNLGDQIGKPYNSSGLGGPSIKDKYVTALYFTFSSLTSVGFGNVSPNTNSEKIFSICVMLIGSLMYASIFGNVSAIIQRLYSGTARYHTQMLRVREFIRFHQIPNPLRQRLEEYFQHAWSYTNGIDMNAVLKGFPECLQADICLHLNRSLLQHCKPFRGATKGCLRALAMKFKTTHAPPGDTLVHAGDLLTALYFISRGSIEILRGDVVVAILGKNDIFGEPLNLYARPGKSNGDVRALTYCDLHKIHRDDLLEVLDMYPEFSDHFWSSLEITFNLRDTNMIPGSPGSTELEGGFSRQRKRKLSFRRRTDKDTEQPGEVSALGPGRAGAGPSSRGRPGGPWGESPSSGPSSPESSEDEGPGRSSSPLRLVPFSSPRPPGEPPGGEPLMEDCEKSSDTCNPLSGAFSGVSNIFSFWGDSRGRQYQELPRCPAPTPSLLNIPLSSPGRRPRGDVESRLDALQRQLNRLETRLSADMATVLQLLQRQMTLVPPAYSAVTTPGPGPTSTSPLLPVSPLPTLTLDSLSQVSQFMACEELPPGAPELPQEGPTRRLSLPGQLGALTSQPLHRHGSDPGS
Assay: Inhibition of hERG at 10 uM at -80 mV holding potential by whole-cell patch clamp analysis relative to control
Format: toxicity
Field: inhibition at 10 µM. Provide a value for each of the compounds that follow.
Report only the number, with the unit % understood.

Kindly note the recorded inhibition at 10 µM for "O=C(O)c1ccc2nc(CN3CCC(Oc4cccc(COc5ccc6cnn(CC(F)F)c6c5)n4)CC3)n(C[C@@H]3CCO3)c2n1" , which is 2.69

Kindly note the recorded inhibition at 10 µM for "O=C(O)c1ccc2nc(Cc3ccc(-c4cccc(OCc5ccc(C6CC(F)(F)C6)cc5F)n4)cc3F)n(C[C@@H]3CCO3)c2c1" , which is 4.76

Kindly note the recorded inhibition at 10 µM for "COc1cc(C(=O)O)cc2c1nc(CN1CC=C(c3cccc(OCc4ccc(C5CC(F)(F)C5)cc4F)n3)CC1)n2C[C@@H]1CCO1" , which is 68.3

Kindly note the recorded inhibition at 10 µM for "O=C(O)c1ccc2nc(CN3CCC(Oc4cccc(COc5ccc(Cl)c6ccoc56)n4)CC3)n(C[C@@H]3CCO3)c2n1" , which is 9.8

Kindly note the recorded inhibition at 10 µM for "O=C(O)c1ccc2nc(CN3CCC(Oc4cccc(COc5ccc6cnn(CC(F)F)c6c5F)n4)CC3)n(C[C@@H]3CCO3)c2n1" , which is 14.2

Kindly note the recorded inhibition at 10 µM for "N#Cc1ccc(OCc2cccc(OC3CCN(Cc4nc5sc(C(=O)O)cc5n4C[C@@H]4CCO4)CC3)n2)c(F)c1" , which is 0.9

Kindly note the recorded inhibition at 10 µM for "O=C(O)c1cc(F)c2nc(CN3CCC(c4cccc(OCc5ccc(C6CC(F)(F)C6)cc5F)n4)CC3)n(C[C@@H]3CCO3)c2c1" , which is 101

Kindly note the recorded inhibition at 10 µM for "O=C(O)c1ccc2nc(CN3CC=C(c4cccc(OCc5ccc(C6CC(F)(F)C6)cc5F)n4)CC3)n(C[C@@H]3CCO3)c2n1" , which is 37.6

Kindly note the recorded inhibition at 10 µM for "N#Cc1ccc(COc2cccc(C3CCN(Cc4nc5ccc(C(=O)O)cc5n4C[C@@H]4CCO4)CC3)n2)c(F)c1" , which is 69.7

Kindly note the recorded inhibition at 10 µM for "O=C(O)c1cc(F)c2nc(CN3CC=C(c4cccc(OCc5ccc(C6CC(F)(F)C6)cc5F)n4)CC3)n(C[C@@H]3CCO3)c2c1" , which is 58.7

Kindly note the recorded inhibition at 10 µM for "O=C(O)c1ccc2nc(CN3CCC(Oc4cccc(Cc5ccc(Cl)c6c5OCC6)n4)CC3)n(C[C@@H]3CCO3)c2n1" , which is 5.1

Kindly note the recorded inhibition at 10 µM for "O=C(O)c1ccc2nc(CN3CC=C(c4cccc(OCc5ccc(C6CC(F)(F)C6)cc5F)n4)CC3)n(C[C@@H]3CCO3)c2c1" , which is 74
